System: 521955-158-R2-J5-PDC complex spheroid viability;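 also: spheroids exposed to agents for one week before reading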
procedure summary: Anticancer human tumor 521955-158-R2-J5-PDC patient-derived pancreatic carcinoma cell line growth inhibition [GQUAD]; active = viability on the fitted dose curve at most 10% of control; inactive = the rest
test conditions: second compound 3.16 µM; first compound 0.0999 µM
Log the outcome using a class from active, inactive

// known answers, use as guide
[
  {
    "molecule": "CCc1c2c(nc3ccc(O)cc13)-c1cc3c(c(=O)n1C2)COC(=O)[C@]3(O)CC + Cc1[nH]c2ccc(F)cc2c1-c1nc2c3cccnc3c3ncccc3c2[nH]1",
    "class name": "active"
  },
  {
    "molecule": "CCc1c2c(nc3ccc(O)cc13)-c1cc3c(c(=O)n1C2)COC(=O)[C@]3(O)CC + CN(C)c1ccc(Nc2c3ccc(NC(=O)CCN4CCCC4)cc3nc3cc(NC(=O)CCN4CCCC4)ccc23)cc1",
    "class name": "inactive"
  }
]

// query In this assay, the call recorded for Cc1[nH]c2ccccc2c1CCNCc1ccc(/C=C/C(=O)NO)cc1 + Cc1cnc(CNC(=O)c2c(=O)c3ccc(N4CCCN(C)CC4)nc3n3c2sc2ccccc23)cn1 was what?
// result active

// query What classification did CC[C@@]1(O)C(=O)OCc2c1cc1n(c2=O)Cc2cc3c(CN(C)C)c(O)ccc3nc2-1 + Cc1[nH]c2ccc(F)cc2c1-c1nc2c3cccnc3c3ncccc3c2[nH]1 end up with in this test?
// result inactive

// query Called result for Cn1ncnc1[C@H]1c2n[nH]c(=O)c3cc(F)cc(c23)N[C@@H]1c1ccc(F)cc1 + Cc1cnc(CNC(=O)c2c(=O)c3ccc(N4CCCN(C)CC4)nc3n3c2sc2ccccc23)cn1
// result inactive

// query What did the test return for Cc1[nH]c2ccccc2c1CCNCc1ccc(/C=C/C(=O)NO)cc1 + CN(C)c1ccc(Nc2c3ccc(NC(=O)CCN4CCCC4)cc3nc3cc(NC(=O)CCN4CCCC4)ccc23)cc1 ?
// result inactive

// query Given CC[C@@]1(O)C(=O)OCc2c1cc1n(c2=O)Cc2cc3c(CN(C)C)c(O)ccc3nc2-1 + CN(C)c1ccc(Nc2c3ccc(NC(=O)CCN4CCCC4)cc3nc3cc(NC(=O)CCN4CCCC4)ccc23)cc1 , state the outcome it received in this test.
// result inactive

// query Record lookup: outcome of this test for Cn1ncnc1[C@H]1c2n[nH]c(=O)c3cc(F)cc(c23)N[C@@H]1c1ccc(F)cc1 + CN(C)c1ccc(Nc2c3ccc(NC(=O)CCN4CCCC4)cc3nc3cc(NC(=O)CCN4CCCC4)ccc23)cc1 ?
// result inactive

// query Status in this test for CCc1c2c(nc3ccc(O)cc13)-c1cc3c(c(=O)n1C2)COC(=O)[C@]3(O)CC + Cc1cnc(CNC(=O)c2c(=O)c3ccc(N4CCCN(C)CC4)nc3n3c2sc2ccccc23)cn1 ?
// result active

// query For Cn1ncnc1[C@H]1c2n[nH]c(=O)c3cc(F)cc(c23)N[C@@H]1c1ccc(F)cc1 + Cc1[nH]c2ccc(F)cc2c1-c1nc2c3cccnc3c3ncccc3c2[nH]1 , which call appears in the assay record?
// result inactive

// query # lookup: test call for CC[C@@]1(O)C(=O)OCc2c1cc1n(c2=O)Cc2cc3c(CN(C)C)c(O)ccc3nc2-1 + Cc1cnc(CNC(=O)c2c(=O)c3ccc(N4CCCN(C)CC4)nc3n3c2sc2ccccc23)cn1
// result inactive

// query Look up the recorded call for Cc1[nH]c2ccccc2c1CCNCc1ccc(/C=C/C(=O)NO)cc1 + Cc1[nH]c2ccc(F)cc2c1-c1nc2c3cccnc3c3ncccc3c2[nH]1 in this test.
// result inactive
